These entries and their values trace back to FireProtDB.

B1: Ribonuclease HI, P0A7Y4 (parent)
chain: MLKQVEIFTDGSCLGNPGPGGYGAILRYRGREKTFSAGYTRTTNNRMELMAAIVALEALKEHCEVILSTDSQYVRQGITQWIHNWKKRGWKTADKKPVKNVDLWQRLDAALGQHQIKWEWVKGHAGHPENERCDELARAAAMNPTLEDTGYQVEV

- Variants of: B1
- experimental-setup: Escherichia coli (strain K12); pH 5.5; Thermal; CD; Sodium acetate 20 mM; reversible: yes; structure 2RN2; whole UniProt chain shown
Measured Tm, listed per entry.

variant	unit-of-measure	Tm
D94E	°C	52
K95A	°C	52
K91R	°C	52
K95G	°C	52
K95N	°C	52
Q113P	°C	49.9
H62P	°C	56.1
